study-target: Cannabinoid receptor 1 (Rattus norvegicus, UniProt P20272)
Sequence (P20272 whole entry): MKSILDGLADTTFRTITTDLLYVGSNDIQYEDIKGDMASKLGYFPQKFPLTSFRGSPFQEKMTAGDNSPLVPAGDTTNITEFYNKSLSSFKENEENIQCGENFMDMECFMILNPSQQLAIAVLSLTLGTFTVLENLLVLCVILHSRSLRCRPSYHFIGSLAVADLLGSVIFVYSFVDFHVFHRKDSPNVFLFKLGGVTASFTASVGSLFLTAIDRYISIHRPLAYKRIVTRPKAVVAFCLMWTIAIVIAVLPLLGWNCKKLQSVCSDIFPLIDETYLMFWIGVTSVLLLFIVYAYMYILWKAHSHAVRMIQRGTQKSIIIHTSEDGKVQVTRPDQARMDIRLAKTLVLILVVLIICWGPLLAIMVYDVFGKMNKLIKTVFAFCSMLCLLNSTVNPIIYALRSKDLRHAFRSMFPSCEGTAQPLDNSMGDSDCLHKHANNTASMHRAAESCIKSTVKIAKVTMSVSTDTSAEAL
test-method-notes: Agonist activity at rat CB1 receptor expressed in HEK293 cells assessed as inhibition of forskolin-induced cAMP accumulation measured for 60 mins by Lance Ultra cAMP assay
Assay type: functional, cell-based
Kindly state EC50 for each of the entries shown.
One number for each entry, in nM.

The examples below pair each entry with its known result.
CC1(C)Oc2cc(C3(CCCCCC#N)CCC3)cc(O)c2[C@@H]2C[C@H](O)CC[C@H]21 | 3.9
CC1(C)Oc2cc(C3(CCCCCC#N)CCC3)cc(O)c2[C@@H]2CC(=O)CC[C@H]21 | 8.6

# context switch: different compound, same EC50
Form field: reported EC50 of CC1(C)Oc2cc(C3(CCCCCC#N)CCC3)cc(O)c2[C@@H]2C[C@@H](O)CC[C@H]21
2

---

pKi data for Cannabinoid receptor 1 (Rattus norvegicus) follow.
Answers are plain numbers, as −log10 of the molar value.

CC1(C)Oc2cc(C3(CCCCCC#N)CCC3)cc(O)c2[C@@H]2C[C@@H](O)CC[C@H]21 | 9.21

Working through the 2 compounds below one at a time, give pKi for each.
1. CC1(C)Oc2cc(C3(CCCC#N)CCC3)cc(O)c2[C@@H]2C[C@H](O)CC[C@H]21
2. CC1(C)Oc2cc(C3(CCCCN4CCOCC4)CCC3)cc(O)c2[C@@H]2CC(=O)CC[C@H]21

[8.34, 8.40]
